The measured values listed here are drawn from patent US20150274820A1.

tested-on: recombinant murine VEGF164 (mouse) (UniProt Q00731)
experiment-summary: Biacore SPR; ratio to hVEGF165
quantity: relative value kdhVEGF165/kdmVEGF164

>>> obs_value("578minmax (scFv, also called ESBA903; 903) scFv: EIVMTQSPSTLSASVGDRVIITCQASEIIHSWLAWYQQKPGKAPKLLIYLASTLASGVPSRFSGSGSGAEFTLTISSLQPDDFATYYCQNVYLASTNGANFGQGTKLTVLGGGGGSGGGGSGGGGSGGGGSEVQLVESGGGLVQPGGSLRLSCTASGFSLTDYYYMTWVRQAPGKGLEWVGFIDPDDDPYYATWAKGRFTISRDTSKNTVYLQMNSLRAEDTAVYYCAGGDHNSGWGLDIWGQGTLVTVSS")
0.8
>>> obs_value("578min_max T84N_V89L_DHP (scFv) scFv: EIVMTQSPSTLSASVGDRVIITCQASEIIHSWLAWYQQKPGKAPKLLIYLASTLASGVPSRFSGSGSGAEFTLTISSLQPDDFATYYCQNVYLASTNGANFGQGTKLTVLGGGGGSGGGGSGGGGSGGGGSEVQLVESGGGSVQPGGSLRLSCTASGFSLTDYYYMTWVRQAPGKGLEWVGFIDPDDDPYYATWAKGRFTISRDNSKNTLYLQMNSLRAEDTATYYCAGGDHNSGWGLDIWGQGTTVTVSS")
1.4
>>> obs_value("578min_max T84N_V89L (scFv, the VH entry already carries T84N and V89L; tied by name; also called Protein No. 1008) scFv: EIVMTQSPSTLSASVGDRVIITCQASEIIHSWLAWYQQKPGKAPKLLIYLASTLASGVPSRFSGSGSGAEFTLTISSLQPDDFATYYCQNVYLASTNGANFGQGTKLTVLGGGGGSGGGGSGGGGSGGGGSEVQLVESGGGLVQPGGSLRLSCTASGFSLTDYYYMTWVRQAPGKGLEWVGFIDPDDDPYYATWAKGRFTISRDNSKNTLYLQMNSLRAEDTAVYYCAGGDHNSGWGLDIWGQGTLVTVSS")
1
>>> obs_value("578minmax FW1.4_DHP (scFv, tied by name only) scFv: EIVMTQSPSTLSASVGDRVIITCQASEIIHSWLAWYQQKPGKAPKLLIYLASTLASGVPSRFSGSGSGAEFTLTISSLQPDDFATYYCQNVYLASTNGANFGQGTKLTVLGGGGGSGGGGSGGGGSGGGGSEVQLVESGGGSVQPGGSLRLSCTASGFSLTDYYYMTWVRQAPGKGLEWVGFIDPDDDPYYATWAKGRFTISRDTSKNTVYLQMNSLRAEDTATYYCAGGDHNSGWGLDIWGQGTTVTVSS")
0.6
